Source listed as paper PMC10257182.

Test system: non-senescent control IMR90 ER:RAS cells
assay notes: Nuclei count (Hoechst, high content imaging) senolytic assay, OIS model, non-senescent control cells
Format: cell-based, human
condition set: Homo sapiens, IMR-90, Control cells; log (dose) [M] -7.66; individual replicates; SUP FIG 4C; read-out: % Cell Survival
List of viability at 0.02188 µM values.

Worked set:
-- ask Returns the measured viability at 0.02188 µM for the input compound. Input: CO[C@H]1C[C@@H]2CC[C@@H](C)[C@@](O)(O2)C(=O)C(=O)N2CCCC[C@H]2C(=O)O[C@H]([C@H](C)C[C@@H]2CC[C@@H](O)[C@H](OC)C2)CC(=O)[C@H](C)/C=C(\C)[C@@H](O)[C@@H](OC)C(=O)[C@H](C)C[C@H](C)/C=C/C=C/C=C/1C [Rapamycin, rapamycin, reference compound]
-- reply 93%

-- ask Returns the measured viability at 0.02188 µM for the input compound. Input: Cc1c(-c2c(F)cc(C(N)=O)c3[nH]c4c(c23)CC[C@H](C(C)(C)O)C4)cccc1-n1c(=O)c2cccc(F)c2n(C)c1=O
-- reply 116%

Next:
-- ask Returns the measured viability at 0.02188 µM for the input compound. Input: O=c1c(O)c(-c2ccc(O)cc2)oc2c(O)c(O)cc(O)c12
-- reply 120%

-- ask Returns the measured viability at 0.02188 µM for the input compound. Input: CO[C@H]1C[C@@H]2CC[C@@H](C)[C@@](O)(O2)C(=O)C(=O)N2CCCC[C@H]2C(=O)O[C@H]([C@H](C)C[C@@H]2CC[C@H](n3cnnn3)[C@H](OC)C2)CC(=O)[C@H](C)/C=C(\C)[C@@H](O)[C@@H](OC)C(=O)[C@H](C)C[C@H](C)/C=C/C=C/C=C/1C [Zotarolimus, zotarolimus, reference compound]
-- reply 111%

-- ask Returns the measured viability at 0.02188 µM for the input compound. Input: Cc1cnc(C(=O)N[C@H]2CCCCC/C=C\[C@@H]3C[C@@]3(C(=O)NS(=O)(=O)C3CC3)NC(=O)[C@@H]3C[C@@H](Oc4nc5ccccc5c5ccccc45)CN3C2=O)cn1 [Paritaprevir, paritaprevir, reference compound]
-- reply 88%
